Cited source: ChEMBL document CHEMBL4261529

test target: Estrogen receptor beta (Homo sapiens, UniProt Q92731)
Sequence (Q92731 whole entry): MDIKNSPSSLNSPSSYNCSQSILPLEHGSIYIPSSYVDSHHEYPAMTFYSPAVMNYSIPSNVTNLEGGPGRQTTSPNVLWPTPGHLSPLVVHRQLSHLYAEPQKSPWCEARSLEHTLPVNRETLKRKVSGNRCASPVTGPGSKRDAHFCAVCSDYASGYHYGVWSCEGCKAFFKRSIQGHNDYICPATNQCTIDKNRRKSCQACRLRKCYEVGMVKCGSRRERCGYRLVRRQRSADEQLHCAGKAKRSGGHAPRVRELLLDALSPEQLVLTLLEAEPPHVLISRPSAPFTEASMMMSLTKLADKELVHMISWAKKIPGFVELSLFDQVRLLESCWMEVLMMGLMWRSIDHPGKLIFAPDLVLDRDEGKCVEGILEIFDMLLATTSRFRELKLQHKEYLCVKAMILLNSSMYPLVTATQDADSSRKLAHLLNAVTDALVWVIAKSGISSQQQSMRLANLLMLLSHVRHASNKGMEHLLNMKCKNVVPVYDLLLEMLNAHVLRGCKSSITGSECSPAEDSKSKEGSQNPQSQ
procedure summary: Antagonist activity at ERbeta (unknown origin) expressed in HEK293T cells assessed as inhibition of 17beta-estradiol stimulated transcriptional activity after 24 hrs by dual luciferase reporter gene assay relative to 17beta-estradiol
Format: cell-based
quantity measured: Efficacy (%)
The reply should contain only the number, in %.

Check out these entries, answers already filled in.
>>> print(df.to_string())
                            smiles_notation  observed_result
0  Oc1ccc(-c2ccc(-c3ccc(OCCN4CCCC4)cc3Cl)[se]2)c(Cl)c1             49.4
1  Oc1ccc(-c2c[se]cc2-c2ccc(OCCN3CCCCC3)cc2)cc1             22.8
2  Oc1ccc(-c2ccc(-c3ccc(OCCN4CCCCC4)cc3F)[se]2)c(F)c1             75.4
3  Cc1cc(-c2c[se]cc2-c2ccc(OCCN3CCCC3)c(C)c2)ccc1O             34.1
4  Cc1cc(O)ccc1-c1ccc(-c2ccc(OCCN3CCCCC3)cc2C)[se]1             78.3
5  Cc1cc(O)ccc1-c1ccc(-c2ccc(OCCN3CCCC3)cc2C)[se]1              4.6

### Prompt Sample Oc1ccc(-c2cc(-c3ccc(OCCN4CCCC4)cc3)c(-c3ccc(O)cc3)[se]2)cc1 — what was its Efficacy?
### Response 49.2

### Prompt Note, next up: Oc1ccc(-c2c[se]cc2-c2ccc(OCCN3CCCC3)cc2Cl)c(Cl)c1
### Response 68.1

### Prompt Note, next up: Oc1ccc(-c2c[se]cc2-c2ccc(OCCN3CCCCC3)c(F)c2)cc1F
### Response 45

### Prompt Note, next up: Cc1cc(O)ccc1-c1c[se]cc1-c1ccc(OCCN2CCCC2)cc1C
### Response 66.7

====

Species on record: Homo sapiens
procedure summary: Ratio of relative binding affinity for human ERalpha LBD to relative binding affinity to human ERbeta LBD
# label = 1.0 if Ratio < 4 else 0.0

Reference set, count: 2
In [3]: df
Out[3]:
                            smiles_notation  classification
0  Oc1ccc(-c2ccc(-c3ccc(OCCN4CCCC4)cc3F)[se]2)c(F)c1             0.0
1  Oc1ccc(-c2c[se]cc2-c2ccc(OCCN3CCCC3)cc2Cl)c(Cl)c1             1.0

### Prompt Is Ratio strictly under 4 for the entry Cc1cc(O)ccc1-c1c[se]cc1-c1ccc(OCCN2CCCC2)cc1C ?
### Response 1.0

### Prompt Note, next up: Oc1ccc(-c2ccc(-c3ccc(OCCN4CCCC4)cc3Cl)[se]2)c(Cl)c1
### Response 1.0

### Prompt Note, next up: Oc1ccc(-c2ccc(-c3ccc(O)cc3Cl)[se]2)c(Cl)c1
### Response 1.0

### Prompt Note, next up: Cc1cc(O)ccc1-c1ccc(-c2ccc(OCCN3CCCC3)cc2C)[se]1
### Response 1.0

### Prompt Note, next up: Oc1ccc(-c2ccc(-c3ccc(OCCN4CCCC4)cc3)[se]2)cc1
### Response 0.0

### Prompt Note, next up: Oc1ccc(-c2ccc(-c3ccc(OCCN4CCCCC4)cc3F)[se]2)c(F)c1
### Response 0.0

### Prompt Note, next up: Oc1ccc(-c2c[se]cc2-c2ccc(OCCN3CCCCC3)c(F)c2)cc1F
### Response 1.0
